System: RPMI-8226 leukemia
Assay: NCI tumour cell line growth inhibition, 48 h
measured-quantity: TGI

Reported TGI for COc1cc2c(cc1OC)C(=O)/C(=C/c1ccccc1)CC2 was > 100 µM

Value of measured TGI for the entry O=C(Nc1cccc(C(F)(F)F)c1)C(=O)C(C(=O)c1ccc2ccccc2c1)C1OC(=O)c2ccccc21 (stereo not given) : 60.6 µM

The recorded TGI for entry CCN(C1=CC(=O)NC2CCCCN12)c1ccccc1 (stereo not given) equals > 100 µM

Measured TGI of Cn1cc(NC(=O)c2cc(NC(=O)c3cc(NC=O)cn3C)cn2C)cc1C(=O)NCCC(=N)N : > 100 µM

The compound identified as COC(O)C12OC3CO[Si](C(C)C)(C(C)C)O[Si](C(C)C)(C(C)C)OC3C1Oc1nc(=O)ccn12 (stereo not given) registered its TGI at 3.51 µM

The reported TGI of the compound COc1ccc(C2=NN(C(=O)c3ccc(Cl)cc3)C(O)(c3cc(F)c(Cl)cc3Cl)C2)cc1OC (stereo not given) was > 100 µM

Value of TGI reported for the compound Cc1ccc(S(=O)(=O)NC(CCC(=O)NN)C(=O)NN)cc1 (stereo not given) is > 100 µM

In plain terms, COc1cc2c[n+]3ccc4cc(OC)c(OC)cc4c3cc2cc1O has a documented TGI of > 100 µM

Form field TGI, entry O=S(=O)(O)c1ccc(N=Nc2ccc(N=Nc3c(O)ccc4cc(S(=O)(=O)O)ccc34)cc2)cc1 : > 100 µM

# compound CC[C@]12C=CCN3CC[C@]4(C(=C(C(=O)OC)C1)Nc1cc(OC)c(OC(C)=O)cc14)[C@@H]32 ; its TGI = 12.3 µM

Entry under test: O=C1NC(=NCCc2cccs2)S/C1=C\c1ccc2ncccc2c1 . Its TGI was > 25 µM

// TGI value for Cc1cccc(NC(=O)c2sc3nc4c(cc3c2N)CCCC4)c1 : > 100 µM

TGI reported for this compound O=C(O)c1ccccc1C1CCCc2c1[nH]c1ccccc21 (stereo not given) : > 100 µM

The recorded TGI for entry COc1ccc2c(c1)O[C@@H]1c3ccc(OC)cc3OC[C@H]21 equals > 100 µM

The reported TGI of the compound c1ccc(N=C2SC(c3ccccc3)(c3ccccc3)c3ccccc32)cc1 was > 100 µM

Lookup result for CCOc1cc(NC(C)=O)ccc1C(=O)NN1C(=O)/C(=C/c2ccco2)N=C1c1ccccc1 ; measured TGI: > 100 µM

// sample OCCNc1ncnc2nc[nH]c12 , its TGI was > 100 µM

The compound listed as Cc1cc(OCc2n[nH]c(=S)n2/N=C/c2ccc(F)cc2)ccc1Cl shows TGI equal to 40.1 µM

Record CC(C)(O)c1coc(S(=O)(=O)/N=C(\O)Nc2c3c(cc4c2CCC4)CCC3)c1 . Reported TGI: > 100 µM

For reference, reported TGI for CCCCCCCCCCCCC[N+](C)(C)Cc1ccccc1 stands at 2.52 µM

Field TGI (entry O=C1CCCn2c(nc3ccccc32)N1 ) reads > 100 µM

// TGI value for CCOC(=O)C(=O)/C=C(\C)Nc1c(NC2OCC(OC(C)=O)C(OC(C)=O)C2OC(C)=O)nc(SC)[nH]c1=O (stereo not given) : > 100 µM

Just so you know, measured TGI for O=P(O)(OP(=O)(O)c1ccccc1)c1ccccc1 (tested in a mixture with another compound) came out at > 100 µM

get_value(item= C=C1C(=O)OC2C1CC[C@H](C)C1(O)C(O)CC(=O)[C@@]21C (stereo not given in full) , readout=TGI) returns 94.8 µM

Data point: CON(C)C(=O)CCCO ; TGI = > 100 µM

TGI for Cc1cc2c(cc1C)N1C(Cl)=C3CCCCC3=C(C#N)C1N2 (stereo not given) is > 100 µM

C/C(=N\NC(=S)NCCNC(=S)N/N=C(\C)c1ccccn1)c1ccccn1 yielded TGI of 9.67 µM

What the record says about CC(C(N)=O)N(C)C(=O)c1cc2ccccc2[n+](Cc2ccccc2)c1 (stereo not given) : TGI is > 100 µM

Item: Ic1ccc2[nH]cc(SSc3c[nH]c4ccc(I)cc34)c2c1 | TGI: 5.5 µM

Input Nc1nc(-c2cccc3ccccc23)cc2ccccc12 . Output TGI: 0.573 µM

FYI, the data here is from PubChem BioAssay (NCI).
